target: GSTO1 (Homo sapiens, UniProt P78417); test: GSTO1 substrate assay (reduction of 4-NPG); details: 10 µM
property.measured: GSTO substrate assay % Inhibition at 10 µM (%)

molecule: CN(C1CCCCC1)S(=O)(=O)c1ccc(NC(=O)CCl)cc1
system.tested: GSTO1 (Homo sapiens, UniProt P78417)
measurement: 9.8
--
molecule: O=C(CCl)Nc1ccccc1C(=O)NCc1ccco1
system.tested: GSTO1 (Homo sapiens, UniProt P78417)
measurement: 62.2
--
molecule: COc1cc(C(=O)NNC(=O)CCl)cc(OC)c1OC
system.tested: GSTO1 (Homo sapiens, UniProt P78417)
measurement: 10.4
--
molecule: O=C(CCl)NCC1COc2ccccc2O1 (stereo not shown)
system.tested: GSTO1 (Homo sapiens, UniProt P78417)
measurement: 80.7

====

Target: GSTO1 (Homo sapiens, UniProt P78417)
Sequence (P78417 1-241): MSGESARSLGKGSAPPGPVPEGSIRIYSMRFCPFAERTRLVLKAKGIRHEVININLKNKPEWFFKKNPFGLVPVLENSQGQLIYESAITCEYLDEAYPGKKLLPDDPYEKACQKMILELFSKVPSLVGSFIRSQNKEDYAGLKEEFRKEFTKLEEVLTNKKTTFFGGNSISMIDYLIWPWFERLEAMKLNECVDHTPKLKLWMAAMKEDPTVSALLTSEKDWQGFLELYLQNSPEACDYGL
Experiment: In-gel fluorescence competitive CMFDA binding assay, recombinant GSTO1
Details: inhibition of CMFDA binding
property.measured: GSTO binding assay (% Inhibition at 10 µM) Recombinant (%)

molecule: Cc1c(-c2ccccc2)sc(NC(=O)CCl)c1C(=O)N1CCOCC1 [C2-15]
system.tested: GSTO1 (Homo sapiens, UniProt P78417)
measurement.unit: %
measurement: 63.2

molecule: O=C(CCl)NCc1ccccc1CN1CCOCC1 [C3-1]
system.tested: GSTO1 (Homo sapiens, UniProt P78417)
measurement.unit: %
measurement: 6.0

molecule: O=C(CCl)N1CCN(c2ncc(C(F)(F)F)cc2Cl)CC1 [C5-6]
system.tested: GSTO1 (Homo sapiens, UniProt P78417)
measurement.unit: %
measurement: 70.2

molecule: O=C(CCl)N1CCN(Cc2ccc(Br)s2)CC1 [C5-10]
system.tested: GSTO1 (Homo sapiens, UniProt P78417)
measurement.unit: %
measurement: 59.8

molecule: CN(CC(=O)Nc1c(Cl)cccc1Cl)C(=O)CCl [C4-7]
system.tested: GSTO1 (Homo sapiens, UniProt P78417)
measurement.unit: %
measurement: -36.4

molecule: CCN(Cc1ccc2c(c1)OCO2)C(=O)CCl [C4-11]
system.tested: GSTO1 (Homo sapiens, UniProt P78417)
measurement.unit: %
measurement: 60.0

molecule: CCN(CC(=O)NC1CCS(=O)(=O)C1)C(=O)CCl (stereo not shown) [C4-13]
system.tested: GSTO1 (Homo sapiens, UniProt P78417)
measurement.unit: %
measurement: 5.1

molecule: O=C(CCl)Nc1nc(-c2c[nH]c3ccccc23)cs1 [C2-25]
system.tested: GSTO1 (Homo sapiens, UniProt P78417)
measurement.unit: %
measurement: 75.7

molecule: Cc1c(NC(=O)c2c(NC(=O)CCl)sc3c2CCCC3)c(=O)n(-c2ccccc2)n1C [C2-19]
system.tested: GSTO1 (Homo sapiens, UniProt P78417)
measurement.unit: %
measurement: 51.8

molecule: O=C(CCl)N(Cc1ccccc1)Cc1ccco1 [C4-15]
system.tested: GSTO1 (Homo sapiens, UniProt P78417)
measurement.unit: %
measurement: 65.8

molecule: CCOC(=O)c1c(NC(=O)CCl)sc2c1CCN(CC)C2 [C2-17]
system.tested: GSTO1 (Homo sapiens, UniProt P78417)
measurement.unit: %
measurement: 51.5

molecule: O=C(CCl)Nc1cc(S(=O)(=O)N(C(=O)CCl)c2cccc(Cl)c2)ccc1Cl [C1-29]
system.tested: GSTO1 (Homo sapiens, UniProt P78417)
measurement.unit: %
measurement: 70.6

molecule: O=C(CCl)NCC1(N2CCCCC2)CCCCC1 [C3-31]
system.tested: GSTO1 (Homo sapiens, UniProt P78417)
measurement.unit: %
measurement: -13.7

The measured values listed here are drawn from paper PMC5059489.
